Kindly supply the reported melting point values for the records listed here.

Task: Give its melting point value. Item: Cc1cc(I)ccc1Nc1c(C(=O)NOCC2CC2)cc(C(=O)N(C)C)c(F)c1F [Example 6]
Result: 78 to 80 °C

Task: Now give it for CNC(=O)c1cc2c(c(F)c1F)N(c1ccc(I)cc1C)COC2=O [Example 2] too.
Result: 219 to 223 °C

Task: Now give it for CNC(=O)c1cc(C(=O)O)c(Nc2ccc(I)cc2C)c(F)c1F [Example 3] too.
Result: 254 to 259 °C

Task: Now give it for CNC(=O)c1cc(C(=O)NOCC2CC2)c(Nc2ccc(I)cc2C)c(F)c1F [Example 4] too.
Result: 198 to 202 °C

---

molecular target: MEK (Homo sapiens); construct: no tag is given for the 2D mutant; test: in vitro MEK assay; format: biochemical; conditions: @ 1 μM
Sequence (Q02750 whole entry S218D/S222D, form open): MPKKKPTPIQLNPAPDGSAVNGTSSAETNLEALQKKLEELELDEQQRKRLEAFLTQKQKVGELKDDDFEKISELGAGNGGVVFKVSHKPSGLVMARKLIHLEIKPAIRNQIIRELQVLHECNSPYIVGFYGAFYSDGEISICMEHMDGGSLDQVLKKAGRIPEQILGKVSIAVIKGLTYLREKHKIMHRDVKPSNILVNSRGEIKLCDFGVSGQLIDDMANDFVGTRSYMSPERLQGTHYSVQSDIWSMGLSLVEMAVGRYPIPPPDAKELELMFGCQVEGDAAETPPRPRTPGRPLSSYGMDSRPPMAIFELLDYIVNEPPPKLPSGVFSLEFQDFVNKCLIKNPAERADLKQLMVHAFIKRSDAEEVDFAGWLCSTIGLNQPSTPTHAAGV
Kindly supply the reported in vitro MEK assay: % inhibition @ 1 μM values for the records listed here.
// return numeric value only (unit: %, not printed)

Task: Give its in vitro MEK assay: % inhibition @ 1 μM value. Item: Cc1cc(I)ccc1Nc1c(C(=O)O)cc(C(=O)N2CCCC(O)C2)c(F)c1F (centres unmarked) [Example 101]
Result: 75

Task: Now give it for Cc1cc(I)ccc1N1COC(=O)c2cc(C(=O)N(C)CCO)c(F)c(F)c21 too.
Result: 41

Task: Now give it for CCn1nccc1NC(=O)c1cc(C(=O)O)c(Nc2ccc(I)cc2C)c(F)c1F too.
Result: 79

Task: Now give it for Cc1cc(I)ccc1Nc1c(C(=O)O)cc(C(=O)N2CCCCC2CCO)c(F)c1F (centres unmarked) too.
Result: 78

Task: Now give it for Cc1cc(I)ccc1Nc1c(C(=O)O)cc(C(=O)NCCCN2CCOCC2)c(F)c1F too.
Result: 58

---

target: MEK (Homo sapiens); construct: no tag is given for the 2D mutant; experiment: in vitro MEK assay; assay type: biochemical; conditions: @ 1 μM
Kindly supply the reported in vitro MEK assay: % inhibition @ 1 μM values for the records listed here.
// return numeric value only (unit: %, not printed)

Task: Give its in vitro MEK assay: % inhibition @ 1 μM value. Item: COc1ccc(NC(=O)c2cc3c(c(F)c2F)N(c2ccc(I)cc2C)COC3=O)cn1
Result: 43

Task: Now give it for COc1ccc(N(C)C(=O)c2cc(C(=O)O)c(Nc3ccc(I)cc3C)c(F)c2F)cc1 too.
Result: 92

Task: Now give it for Cc1cc(I)ccc1Nc1c(C(=O)O)cc(C(=O)N2CCCC(CO)C2)c(F)c1F (centres unmarked) too.
Result: 88

Task: Now give it for Cc1cc(I)ccc1N1COC(=O)c2cc(C(=O)N3CCC(N4CCCC4)CC3)c(F)c(F)c21 too.
Result: 7

Task: Now give it for COc1ccc2[nH]cc(CCNC(=O)c3cc4c(c(F)c3F)N(c3ccc(I)cc3C)COC4=O)c2c1 too.
Result: 0

Task: Now give it for Cc1cc(I)ccc1N1COC(=O)c2cc(C(=O)N3CC[C@@H](O)C3)c(F)c(F)c21 too.
Result: 34

Task: Now give it for Cc1cc(I)ccc1N1COC(=O)c2cc(C(=O)Nc3ccccc3CCO)c(F)c(F)c21 too.
Result: 55

Task: Now give it for CCOc1ccc2nc(NC(=O)c3cc4c(c(F)c3F)N(c3ccc(I)cc3C)COC4=O)sc2c1 too.
Result: 9
